# Test system: Staphylococcus epidermitis
# experimental-details: Bacterial growth inhibition screen in LB media (absorbance 595 nm), percent inhibition
# conditions: S. epidermitis; concentration screened 10 uM
Please go through the items and note down their % Inhibition.
Numbers only, in %.

Example entries and their recorded answers appear below.
>>> print(df.to_string())
                                   compound                 measured_on  measurement
0  O=[N+]([O-])c1cc([N+](=O)[O-])c2[nH]c(CCCCCC[n+]3cccc4ccccc43)cc2c1  Staphylococcus epidermitis         7.80
1  CC(C)c1ccc2[nH]c(CCCCCC[n+]3ccc4ccccc4c3)cc2c1  Staphylococcus epidermitis         5.43
2  C[n+]1cc(C(=O)OCCCCn2ccc3cc(OCc4ccccc4)ccc32)cc2ccccc21  Staphylococcus epidermitis        83.13

Would you mind giving % Inhibition for every compound in the list below?
1. O=C(OCCCCc1cc2ccc(C(F)(F)F)cc2[nH]1)c1cccnc1
2. CC(C)c1ccc2[nH]c(CCCCC[n+]3cccc4ccccc43)cc2c1
3. CC(=O)c1ccc2[nH]c(CCCCC[n+]3cccc4ccccc43)cc2c1
4. O=C(OCCCCCCCCn1ccc2cc([N+](=O)[O-])ccc21)c1cnc2ccccc2c1
5. COC(=O)c1cc2cc(OCc3ccccc3)ccc2n1CCC[n+]1ccccc1
6. c1ccc(Oc2ccc3[nH]c(CCCCCCC[n+]4ccc5ccccc5c4)cc3c2)cc1
7. O=C(OCCCCCCCCc1cc2cc(C(F)(F)F)ccc2[nH]1)c1cccnc1

1: 4.22; 2: 5.85; 3: 11.14; 4: 98.13; 5: 96.46; 6: 3.10; 7: 2.59

Would you mind giving % Inhibition for every compound in the list below?
1. O=C(OCCCCCCCCc1cc2ccc(C(F)(F)F)cc2[nH]1)c1cccnc1
2. COc1ccc2c(ccn2CCCCCOC(=O)c2cc3ccccc3[n+](C)c2)c1

1: 9.26; 2: 95.02

Would you mind giving % Inhibition for every compound in the list below?
1. CC(C)c1ccc2[nH]c(CCCCCCCC[n+]3ccc4ccccc4c3)cc2c1
2. C[N+](C)(C)c1cccc(C(=O)OCCCCCCCCn2ccc3cc(OCc4ccccc4)ccc32)c1
3. C[N+](C)(C)c1cccc(C(=O)OCCCCCCCn2ccc3cc(OCc4ccccc4)ccc32)c1
4. CC(C)c1ccc2[nH]c(CCCCCCCC[n+]3cccc4ccccc43)cc2c1
5. CN(C)c1ccc(CC(=O)OCCCCCCCCCn2ccc3cc([N+](=O)[O-])ccc32)cc1
6. CC(C)c1ccc2[nH]c(CCCCOC(=O)c3cccnc3)cc2c1
7. c1ccc(Oc2ccc3[nH]c(CCCCCC[n+]4cccc5ccccc54)cc3c2)cc1
8. Fc1ccc2[nH]c(CCCCC[n+]3cccc4ccccc43)cc2c1

1: 4.67; 2: 99.81; 3: 98.06; 4: 22.28; 5: 98.58; 6: 14.44; 7: 16.09; 8: 8.22

Would you mind giving % Inhibition for every compound in the list below?
1. CC(=O)c1ccc2[nH]c(CCCCOC(=O)c3cccnc3)cc2c1 [Compound 690]
2. C[n+]1cc(C(=O)OCCCCCn2ccc3cc(OCc4ccccc4)ccc32)cc2ccccc21
3. FC(F)(F)c1ccc2cc(CCCC[n+]3cccc4ccccc43)[nH]c2c1

1. 10.01
2. 92.57
3. 5.85
